Study system: recombinant SARS-CoV-2 Main protease (Mpro) (Severe acute respiratory syndrome coronavirus 2 (2019-nCoV) (SARS-CoV-2))
Experiment: Cov Mpro Biochemical IC50 Assay
Measurement parameters: recombinant SARS-CoV-2 Mpro 7.5 nM, fluorogenic peptide substrate 40 μM; read-out: MPro IC50
pIC50: −log10 of the molar value.
Think of 8 as a floor: if pIC50 stands on it or above, it is Yes; beneath it, No.

The following molecules have reported results that may help.
Molecule	Classification
COc1ccc(Cl)c(-c2cc3[nH]c(=O)n(-c4cncc5ccccc45)c(=O)c3s2)c1 (single isomer, unassigned) [Example 465]	Yes
Cc1csc2cncc(-n3c(=O)[nH]c4cc(-c5c(Cl)cccc5-c5cncc(C#N)c5)sc4c3=O)c12 [Example 674]	Yes
COc1cc(-c2cc3c(s2)c(=O)n(-c2cncc4cnsc24)c(=O)n3CCC#N)c(Cl)cc1F [Example 922]	Yes
COc1cc(-c2nc3c(s2)c(=O)n(-c2cncc4ccccc24)c(=O)n3CC#N)c(Cl)cc1F [Example 705]	Yes
COc1ccc(C#N)c(-c2cc3[nH]c(=O)n(-c4cncc5cnn(C)c45)c(=O)c3s2)c1 [Example 506]	No
O=c1[nH]c2cc(-c3ccccc3Cl)sc2c(=O)n1-c1cncc2cccnc12 (single isomer, unassigned) [Example 464]	Yes
COc1cnc(Cl)c(-c2cc3c(s2)c(=O)n(-c2cncc4nnn(C)c24)c(=O)n3CCC#N)c1 [Example 884]	No
COc1ccc2cncc(-n3c(=O)[nH]c4cc(-c5ccccc5Cl)sc4c3=O)c2c1 (single isomer, unassigned) [Example 441]	No
COc1ccc(Cl)c(-c2cc3[nH]c(=O)n(-c4cncc5sc(C(N)=O)c(C)c45)c(=O)c3s2)c1 [Example 1048]	Yes
COc1cc(-c2cc3c(s2)c(=O)n(-c2cncc(Cl)c2)c(=O)n3CCC#N)c(C#N)cc1F [Example 866]	Yes

[Q] Say whether COc1cc(-c2cc3c(s2)c(=O)n(-c2cncc(Cl)c2)c(=O)n3CCC#N)c(Cl)cc1F [Example 985] shows pIC50 of 8 or more.
[A] Yes

[Q] What do you get for COc1cc(-c2cc3c(s2)c(=O)n(-c2cncc4nc(C)n(C)c24)c(=O)n3CCC#N)c(Cl)cc1F (single isomer, unassigned) [Example 970] ?
[A] Yes

[Q] What do you get for COc1cc(-c2cc3[nH]c(=O)n(-c4cncc5ccccc45)c(=O)c3s2)c(C)cc1C [Example 717] ?
[A] No

[Q] What do you get for COc1cc(-c2cc3[nH]c(=O)n(-c4cncc5cccc(F)c45)c(=O)c3cc2OC)c(C#N)cc1F [Example 682] ?
[A] No
